Values were extracted from PubChem BioAssay.

- subject.of.test: Streptavidin (Streptomyces avidinii)
- assay.text: compounds binding control protein streptavidin – biophysical, small-molecule microarray, 635/667 nm fluorescence, artefact control for SMM compound annotation, primary screen (AID 1147);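 note: signal reflects streptavidin binding to arrayed compounds as a control protein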
- assay.conditions: higher = more signal
rule met means recorded composite z-score is 0.7 or above; rule not met means it is below 0.7.

Record `CCOC(=O)C[C@H]1[C@H](OC(=O)c2ccc(-c3ccccc3)cc2)[C@@H](NC(=O)CC(C)C)c2cc(OCCCO)ccc2N1C(=O)c1ccc2ccccc2n1` ; criterion: composite z-score no lower than 0.7. Met?
rule met

Record `C=C[C@@H](OC)[C@H](OC(=O)Nc1ccc(OC)cc1)c1ccc(O)c(F)c1` ; criterion: composite z-score no lower than 0.7. Met?
rule not met

Record `COc1ccc(CCNC(=O)[C@@]2(Sc3ccc(C)cc3)CC(=O)N(Cc3ccccc3C(F)(F)F)[C@@H]2c2ccc(CO)cc2I)cc1` ; criterion: composite z-score no lower than 0.7. Met?
rule not met

Record `COCCOC(=O)N1C(=O)[C@@]2(c3cc(C#CCC(C(=O)OC)C(=O)OC)ccc31)[C@H](c1ccc(OCCO)cc1)N1[C@H](c3ccccc3)[C@H](c3ccccc3)OC(=O)[C@H]1[C@@H]2C(=O)N1CCc2cc(OC)c(OC)cc2C1` ; criterion: composite z-score no lower than 0.7. Met?
rule met

Record CCCCCN1CC=CC23O[C@@H]4/C=C\CCC(C)OC(=O)C4[C@H]2C(=O)N(C(CO)C(C)C)[C@@H]3C1=O (some centres not stated) ; criterion: composite z-score no lower than 0.7. Met?
rule not met

Record `CC#CCO[Si](C#Cc1ccccc1)(C(C)C)C(C)C` ; criterion: composite z-score no lower than 0.7. Met?
rule not met

Record `[N-]=[N+]=Nc1ccccc1[C@@H]1OC(c2ccc(OCCCO)cc2)=N[C@]1(Cc1ccccc1)C(=O)O` ; criterion: composite z-score no lower than 0.7. Met?
rule met

====

- assay.text: probe aNOTCH3 binding on compound microarray – biochemical, small-molecule microarray, 635/667 nm fluorescence, primary screen (AID 1120);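 note: probe is a biotin-tagged antibody raised against NOTCH3 rather than NOTCH3 protein; score merges spot fluorescence near 667 nm with spot signal to noise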
- assay.conditions: higher = more signal
endpoint.label: composite z-score

Read off the recorded composite z-score for `CN(C)C(=O)[C@@]1(Cc2ccccc2)N=C(c2ccc(OCCCO)cc2)O[C@H]1c1ccccc1`
0.738

Read off the recorded composite z-score for `CCCN1C(=O)[C@@]2(Cc3ccccc31)N=C(c1ccc(OCCCO)cc1)O[C@H]2c1ccccc1`
0.0916

Read off the recorded composite z-score for `CCCC=C(CCC)[C@@H](NC(=O)c1cccs1)c1ccc(C(=O)OC)cc1`
1.29

Read off the recorded composite z-score for `COCCOC(=O)N1C(=O)[C@@]2(c3cc(C#CCCO)ccc31)[C@H](c1ccc(OCCO)cc1)N1[C@H](c3ccccc3)[C@H](c3ccccc3)OC(=O)[C@H]1[C@@H]2C(=O)Nc1nc2ccccc2s1`
0.0556

Read off the recorded composite z-score for `[N-]=[N+]=Nc1ccccc1C[C@@]1(C(=O)N2CCOCC2)N=C(c2ccc(OCCCO)cc2)O[C@@H]1c1ccccc1`
0.457

Read off the recorded composite z-score for CCCCC(O)C1C=CC2C(=O)N(C)C(=O)C2N1N(c1ccccc1)c1ccccc1 (stereo not given)
0.183

Read off the recorded composite z-score for `CC(=O)NCCCC[C@@H]1NC(=O)[C@@H]2C[C@H](C(=O)NCCCCCN)[C@H](c3ccc(O)cc3)N2C1=O`
0.237

Read off the recorded composite z-score for COc1cc(OC)c(C(O)C2C=CC3C(=O)N(Cc4ccccc4)C(=O)C3N2n2cnnc2)cc1Br (stereo not given)
0.056

Read off the recorded composite z-score for `CCCC[C@@H](O)C1=C(COC)C[C@H]2C(=O)N(C)C(=O)[C@H]2[C@H]1CO`
-0.139

Read off the recorded composite z-score for O=C1CS(=O)(=O)C(c2cccc([N+](=O)[O-])c2)N1c1ccccc1 (stereo not given)
0.482

Read off the recorded composite z-score for `O=C1O[C@H](c2ccccc2)[C@H](c2ccccc2)N2[C@H]1[C@@H](C(=O)O)[C@]1(C(=O)Nc3ccc(C#CCCO)cc31)[C@H]2c1ccccc1OCCO`
-0.19

Read off the recorded composite z-score for `O=C1O[C@@H](c2ccccc2)[C@@H](c2ccccc2)N2[C@@H](c3ccc(OCCO)cc3)[C@]3(C(=O)Nc4ccc(C#CC5=CCCCC5)cc43)[C@@H](C(=O)NC[C@H](O)c3ccccc3)[C@H]12`
1.03

Read off the recorded composite z-score for C[C@@H]1NC(=O)[C@@H](Cc2ccccc2)NC(=O)[C@@]23C(=O)N[C@@H](Cc4ccccc4)C2[C@H](C)[C@@]2(C)O[C@H]2C3/C=C/C/C=C\CNC1=O (stereo not given in full)
-0.277

Read off the recorded composite z-score for CN1C2C=C(CCCO)C(C3C(=O)N(C(N)=O)C(=O)C32)C1C1CC1 (stereo not given)
-0.272

Read off the recorded composite z-score for CCCCC(CC)C(O)C1C=CC2C(=O)N(C)C(=O)C2N1Nc1ccccc1 (stereo not given)
0.0934
